Tested system: mTOR (Homo sapiens)
Experiment: SelectScreen Profiling IC50
Format: biochemical
Assay setup: cell-free; ATP Km app; mean ± SEM; read-out: NU5455 IC50
pIC50: −log10 of the molar value.
Readout label: pIC50

>  <Sample smiles>
CN(C(=O)CN1CCOCC1)c1ccc2sc3c(-c4cccc5c(=O)cc(N6CC7CCC(C6)O7)oc45)cccc3c2c1

>  <Tested system>
mTOR (Homo sapiens)

>  <Readout label>
pIC50

>  <Reading>
5.39

$$$$

###

Tested system: Vps34 (Homo sapiens, UniProt Q8NEB9)
Sequence (Q8NEB9 whole entry): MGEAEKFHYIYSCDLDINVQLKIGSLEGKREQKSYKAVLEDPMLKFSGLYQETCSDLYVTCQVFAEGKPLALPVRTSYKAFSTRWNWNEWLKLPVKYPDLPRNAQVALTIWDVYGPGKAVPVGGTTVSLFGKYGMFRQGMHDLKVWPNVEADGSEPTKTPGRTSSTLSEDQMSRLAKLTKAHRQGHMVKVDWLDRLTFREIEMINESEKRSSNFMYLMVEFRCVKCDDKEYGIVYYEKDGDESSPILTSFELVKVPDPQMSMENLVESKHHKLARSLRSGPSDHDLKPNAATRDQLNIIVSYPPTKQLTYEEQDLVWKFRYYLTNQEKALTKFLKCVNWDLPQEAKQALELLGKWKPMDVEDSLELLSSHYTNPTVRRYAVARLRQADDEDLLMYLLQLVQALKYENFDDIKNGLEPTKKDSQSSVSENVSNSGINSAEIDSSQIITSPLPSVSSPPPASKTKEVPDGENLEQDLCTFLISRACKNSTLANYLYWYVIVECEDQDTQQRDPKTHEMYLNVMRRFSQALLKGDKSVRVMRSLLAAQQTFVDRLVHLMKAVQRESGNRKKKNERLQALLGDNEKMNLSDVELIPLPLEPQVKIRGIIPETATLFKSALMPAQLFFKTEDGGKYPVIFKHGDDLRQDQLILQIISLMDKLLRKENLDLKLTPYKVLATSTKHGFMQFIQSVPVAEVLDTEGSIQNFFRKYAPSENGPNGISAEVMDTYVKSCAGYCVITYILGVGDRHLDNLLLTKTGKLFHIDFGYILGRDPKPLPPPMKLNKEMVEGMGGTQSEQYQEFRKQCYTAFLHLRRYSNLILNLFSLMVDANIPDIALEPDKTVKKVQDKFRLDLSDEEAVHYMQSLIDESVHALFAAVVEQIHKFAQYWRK
pIC50: −log10 of the molar value.
Readout label: pIC50

>  <Sample smiles>
CN(C(=O)CN1CCOCC1)c1ccc2sc3c(-c4cccc5c(=O)cc(N6CC7CCC(C6)O7)oc45)cccc3c2c1

>  <Readout label>
pIC50

>  <Reading>
7.15

$$$$
